src = patent US20230278972A1

As shown below, each of these compounds has a reported Foxtail, Giant plant response rating value.
Tested on: Foxtail, Giant (giant foxtail, Setaria faberi)
Protocol: Test A postemergence, Foxtail, Giant
Type: in vivo
Study conditions: Postemergence, 500 g ai/ha; visual injury vs untreated controls after approx. 10 days; 0 to 100 scale (0 no effect, 100 complete control)
From the text: Seeds of plant species selected from barnyardgrass (Echinochloa crus-galli), kochia (Bassia scoparia), ragweed (common ragweed, Ambrosia artemisiifolia), Ryegrass, Italian (Italian ryegrass, Lolium multiflorum), Foxtail, Giant (giant foxtail, Setaria faberi), and pigweed (Amaranthus retroflexus) were planted into a blend of loam soil and sand and treated preemergence with a directed soil spray using test chemicals formulated in a non-phytotoxic solvent mixture which included a surfactant. […]
API doc: respond with a numeric literal and nothing else, no unit.

Sample answers from the record:
Compound: Cc1cc(C)c(C(=O)N2CCC3(CCCC3)C2)cc1NS(=O)(=O)C(F)(F)F [Compound 225]
Foxtail, Giant plant response rating: 0
--
Compound: Cc1cc(C)c(C2=NOC(C)(CCl)C2)cc1NS(=O)(=O)C(F)(F)F (centres unmarked) [Compound 226]
Foxtail, Giant plant response rating: 60
--
Compound: Cc1cc(F)c(C(=O)N2CCCCC2)cc1NS(=O)(=O)C(F)(F)F [Compound 211]
Foxtail, Giant plant response rating: 50
--
Compound: CC(=O)N(c1cc(C2=NOC3(CCCC3)C2)c(C)cc1C)S(=O)(=O)C(F)(F)F [Compound 220]
Foxtail, Giant plant response rating: 50

Ask: Give Foxtail, Giant plant response rating for the following compound: Cc1ccc(-c2ccnn(C)c2=O)cc1NS(=O)(=O)C(F)(F)F [Compound 59]
Result: 70

Ask: Fill in Foxtail, Giant plant response rating for record C#CCN(C)C(=O)c1cc(N(S(=O)(=O)C(F)(F)F)S(=O)(=O)C(F)(F)F)c(C)c(F)c1C [Compound 147]
Result: 90

Ask: In one line, give reported Foxtail, Giant plant response rating of the entry Cc1cc(-c2cc(N(S(=O)(=O)C(F)(F)F)S(=O)(=O)C(F)(F)F)c(C)cc2C)c(=O)n(C)n1 [Compound 75] .
Result: 90

Ask: // Input: Cc1cc(C(F)(F)F)c(NS(=O)(=O)C(F)(F)F)cc1C(=O)N1CCCCC1 [Compound 165] . Output its Foxtail, Giant plant response rating only.
Result: 0

* * *

This section presents compounds with their documented Plant response rating, Corn values.
Tested on: corn (Zea mays)
Protocol: Test A postemergence, corn
Format: in vivo
Study conditions: Postemergence, 125 g ai/ha; 0 to 100 scale (0 no effect, 100 complete control)
Text: Seeds of plant species selected from barnyardgrass (Echinochloa crus-galli), kochia (Bassia scoparia), ragweed (common ragweed, Ambrosia artemisiifolia), Ryegrass, Italian (Italian ryegrass, Lolium multiflorum), Foxtail, Giant (giant foxtail, Setaria faberi), and pigweed (Amaranthus retroflexus) were planted into a blend of loam soil and sand and treated preemergence with a directed soil spray using test chemicals formulated in a non-phytotoxic solvent mixture which included a surfactant. […]
Response field accepts a number only; no unit should be typed.

Worked examples follow.
Compound: Cc1cc(F)c(C(=O)N2CCCCC2)cc1N(S(=O)(=O)C(F)(F)F)S(=O)(=O)C(F)(F)F [Compound 212]
Tested target: corn (Zea mays)
Plant response rating, Corn: 0

Compound: CC(=O)OCN(c1cc(C2=NOC3(CCCC3)C2)c(C)cc1C)S(=O)(=O)C(F)(F)F [Compound 218]
Tested target: corn (Zea mays)
Plant response rating, Corn: 10

Ask: Tell me measured Plant response rating, Corn for COC1CCCN(C(=O)c2cc(NS(=O)(=O)C(F)(F)F)c(Cl)cc2C)C1 (stereo not shown) [Compound 146] please.
Result: 10

Ask: Consider the compound Cc1cc(Cl)c(C2=NOC(C)(C)C2)cc1N(S(=O)(=O)C(F)(F)F)S(=O)(=O)C(F)(F)F [Compound 184] and give its recorded Plant response rating, Corn.
Result: 0

Ask: Supply Plant response rating, Corn value. Item: Cc1cc(Cl)c(C(=O)N2CCCCC2)cc1N(S(=O)(=O)C(F)(F)F)S(=O)(=O)C(F)(F)F [Compound 253]
Result: 0

Ask: Note Plant response rating, Corn for the compound shown: Cc1cc(Cl)c(C(=O)N(C)C)cc1N(S(=O)(=O)C(F)(F)F)S(=O)(=O)C(F)(F)F [Compound 256]
Result: 0

Ask: Quickly give me recorded Plant response rating, Corn for Cc1cc(C)c(C2=NOC(C)(C)C2)cc1NS(=O)(=O)C(F)(F)F [Compound 206]
Result: 0

* * *

System: Oat, Wild (wild oat, Avena fatua)
Protocol: Test A1 postemergence, Oat, Wild
Type: in vivo
Study conditions: Postemergence, 125 g ai/ha; 0 to 100 scale (0 no effect, 100 complete control); 10 days
Reported Plant response rating, Oat, Wild by item:
Lab note: write the figure by itself, no unit.

Illustrative cases are given below, each with its answer.
Compound: Cc1cc(C)c(N2CCC3(CCC(C)CC3)C2=O)cc1NS(=O)(=O)C(F)(F)F (stereo not shown)
Tested target: Oat, Wild (wild oat, Avena fatua)
Plant response rating, Oat, Wild: 10

Compound: Cc1cc(C)c(N2CCC3(CCC(C(F)(F)F)CC3)C2=O)cc1NS(=O)(=O)C(F)(F)F (stereo not shown)
Tested target: Oat, Wild (wild oat, Avena fatua)
Plant response rating, Oat, Wild: 0

Compound: Cc1cc(C)c(N(COC(=O)C(C)(C)C)S(=O)(=O)C(F)(F)F)cc1N1CCC2(CCC(C(F)(F)F)CC2)C1=O (stereo not shown)
Tested target: Oat, Wild (wild oat, Avena fatua)
Plant response rating, Oat, Wild: 30

Compound: Cc1cc(C)c(N2Cc3cccc(Br)c3C2=O)cc1NS(=O)(=O)Cl
Tested target: Oat, Wild (wild oat, Avena fatua)
Plant response rating, Oat, Wild: 30

Compound: COC1CCC2(CC1)CCN(c1cc(NS(=O)(=O)C(F)(F)F)c(C)cc1C)C2=O (stereo not shown)
Tested target: Oat, Wild (wild oat, Avena fatua)
Plant response rating, Oat, Wild: 10

Ask: Answer with reported Plant response rating, Oat, Wild of `Cc1cc(C)c(N2CC3(CCCCC3)CC2=O)cc1NS(=O)(=O)C(F)(F)F`
Result: 0

Ask: Provide measured Plant response rating, Oat, Wild value, entry: Cc1cc(C)c(N(COC(=O)C(C)(C)C)S(=O)(=O)C(F)(F)F)cc1N1CCC2(CCC(C)CC2)C1=O (stereo not shown)
Result: 30

* * *

System: galium (catchweed bedstraw, Galium aparine)
Protocol: Test A postemergence, galium
Format: in vivo
Study conditions: Galium, post-emergence, 240 h; Postemergence, 125 g ai/ha; visual injury approx. 10 days; 0 to 100 scale (0 no effect, 100 complete control); read-out: Plant response rating, Galium
Measure: pest or weed control at 125 g/ha (%)
Quick note: give the figure in %, leave out the unit.

Check out these entries, answers already filled in.
Input smiles: Cc1cc(Cl)c(NS(=O)(=O)C(F)(F)F)cc1C(=O)N1CCOCC1
Measure: pest or weed control at 125 g/ha
Observed result: 80

Input smiles: Cc1cc(C)c(C2=NO[C@@H]3CCC[C@H]23)cc1NS(=O)(=O)C(F)(F)F
Measure: pest or weed control at 125 g/ha
Observed result: 90

Input smiles: Cc1c(NS(=O)(=O)C(F)(F)F)cc(C(=O)N(C)C)c(C)c1F
Measure: pest or weed control at 125 g/ha
Observed result: 80

Please look at the following compound next.
Ask: Identify the reported pest or weed control at 125 g/ha for the following entry. `Cc1cc(C)c(N(COC(=O)C(C)(C)C)S(=O)(=O)C(F)(F)F)cc1C1=NOC2(CCCC2)C1`
Result: 50

* * *

Test system: pigweed (Amaranthus retroflexus)
Protocol: Test A preemergence, pigweed
Format: in vivo
Study conditions: 500 g ai/ha, 0 to 100 scale (0 no effect, 100 complete control)
Parameter Plant response rating, Pigweed: see the listing below.

Input smiles: Cc1cc(Cl)c(C2=NOC(C)(C)C2)cc1N(S(=O)(=O)C(F)(F)F)S(=O)(=O)C(F)(F)F
Plant response rating, Pigweed: 100
--
Input smiles: Cc1cc(C)c(N(S(=O)(=O)C(F)(F)F)S(=O)(=O)C(F)(F)F)cc1C1=NOC2(CCOCC2)C1
Plant response rating, Pigweed: 100
--
Input smiles: Cc1cc(C)c(N(S(=O)(=O)C(F)(F)F)S(=O)(=O)C(F)(F)F)cc1-c1cn(C)c(=O)n(C)c1=O
Plant response rating, Pigweed: 80
--
Input smiles: Cc1cc(F)c(C(=O)N(C)C)cc1NS(=O)(=O)C(F)(F)F
Plant response rating, Pigweed: 90
--
Input smiles: Cc1ccc(-c2ccnn(C)c2=O)cc1NS(=O)(=O)C(F)(F)F
Plant response rating, Pigweed: 60
--
Input smiles: COc1cc(C)c(NS(=O)(=O)C(F)(F)F)cc1-c1ccnn(C)c1=O
Plant response rating, Pigweed: 100
--
Input smiles: Cc1cc(C)c(N(S(=O)(=O)C(F)(F)F)S(=O)(=O)C(F)(F)F)cc1-c1ccnn(C)c1=O
Plant response rating, Pigweed: 100

Then this compound:
Ask: Find the measured Plant response rating, Pigweed of `Cc1c(NS(=O)(=O)C(F)(F)F)cc(C(=O)N2CCC(F)CC2)c(C)c1F` with pigweed (Amaranthus retroflexus) as test system.
Result: 100
